Reference for the values: ChEMBL document CHEMBL1275542

- Test system: Pasteurella multocida
- assay_method_text: Antibacterial activity against TolC deficient Pasteurella multocida pm1980 after 24 hrs by broth dilution method
- Format: functional
assay_endpoint: MIC
Please provide the amount together with its unit, number first.

Field MIC (system: Pasteurella multocida) for entry POLYMYXIN B = 12.5 µg/mL

Field MIC (system: Pasteurella multocida) for entry NEOMYCIN SULFATE = 1000 µg/mL

Field MIC (system: Pasteurella multocida) for entry SPIRAMYCIN = 25 µg/mL

Field MIC (system: Pasteurella multocida) for entry GENTAMICIN = 40 µg/mL

----------
- Tested on: Pasteurella multocida
- assay_method_text: Ratio of MIC for Pasteurella multocida AL435 to MIC for TolC deficient Pasteurella multocida pm1980
- Type: functional
For each record, write down the corresponding Ratio.

Memo: CN[C@H](CC(C)C)C(=O)N[C@H]1C(=O)N[C@@H](CC(N)=O)C(=O)N[C@H]2C(=O)N[C@H]3C(=O)N[C@H](C(=O)N[C@H](C(=O)O)c4cc(O)cc(O)c4-c4cc3ccc4O)[C@H](O)c3ccc(c(Cl)c3)Oc3cc2cc(c3O[C@@H]2O[C@H](CO)[C@@H](O)[C@H](O)[C@H]2O[C@H]2C[C@](C)(N)[C@H](O)[C@H](C)O2)Oc2ccc(cc2Cl)[C@H]1O , reported Ratio: 4

Memo: CCn1cc(C(=O)O)c(=O)c2ccc(C)nc21 , reported Ratio: 1

Memo: CC(C)(O/N=C(\C(=O)N[C@@H]1C(=O)N2C(C(=O)[O-])=C(C[n+]3ccccc3)CS[C@H]12)c1csc(N)n1)C(=O)O , reported Ratio: 8

Memo: CC[C@H]1OC(=O)[C@H](C)[C@@H](O[C@H]2C[C@@](C)(OC)[C@@H](O)[C@H](C)O2)[C@H](C)[C@@H](O[C@@H]2O[C@H](C)C[C@H](N(C)C)[C@H]2O)[C@](C)(O)C[C@@H](C)C(=O)[C@H](C)[C@@H](O)[C@]1(C)O , reported Ratio: 2

Memo: O[C@@H](CS)[C@@H](O)CS , reported Ratio: 2

----------
- Tested on: Pasteurella multocida
- assay_method_text: Antibacterial activity against TolC deficient Pasteurella multocida pm0527 after 24 hrs by broth dilution method
- Assay type: functional
- setup_conditions: pm0527, 24 h
For each record, write down the corresponding MIC.
Output spec: scalar in µg/mL, unitless text.

Field MIC (system: Pasteurella multocida) for entry CN(C)c1ccc(C(=C2C=CC(=[N+](C)C)C=C2)c2ccc(N(C)C)cc2)cc1.[Cl-] = 3.12

Field MIC (system: Pasteurella multocida) for entry C[C@H](CCC(=O)O)[C@H]1CC[C@H]2[C@@H]3CC[C@@H]4C[C@H](O)CC[C@]4(C)[C@H]3C[C@H](O)[C@]12C = 625

Field MIC (system: Pasteurella multocida) for entry C[C@@H]1C[C@@H]([C@H](O)CC2CC(=O)NC(=O)C2)C(=O)[C@@H](C)C1 [CYCLOHEXIMIDE] = 250

Field MIC (system: Pasteurella multocida) for entry CCC[C@@H]1C[C@@H](C(=O)N[C@@H]([C@H]2O[C@H](SC)[C@H](O)[C@@H](O)[C@H]2O)[C@@H](C)O)N(C)C1 = 25

Field MIC (system: Pasteurella multocida) for entry CC(C)(O/N=C(\C(=O)N[C@@H]1C(=O)N2C(C(=O)[O-])=C(C[n+]3ccccc3)CS[C@H]12)c1csc(N)n1)C(=O)O = 15.6

Field MIC (system: Pasteurella multocida) for entry CCn1cc(C(=O)O)c(=O)c2ccc(C)nc21 = 25

Field MIC (system: Pasteurella multocida) for entry CC[n+]1c(-c2ccccc2)c2cc(N)ccc2c2ccc(N)cc21.[Br-] [HOMIDIUM BROMIDE] = 5
